Where a name gives a salt, the structure may show the parent alone.
Reported Ki, PIM2 (Homo sapiens (Human), UniProt Q9P1W9).
Please respond with the number in nM and leave the unit unwritten.

The examples below pair each entry with its known result.
INSERT INTO assay_data (molecule, result) VALUES
  ('Cc1cncc(-c2cc3c(cn2)cnn3-c2cccc(N3C[C@@H](N)C[C@H](F)C3)n2)n1', 3.35),
  ('Cc1nc(-c2cc3c(cn2)cnn3-c2cccc(N3CCC[C@H](N)C3)n2)cnc1N', 0.575);

Ask | Fill in: Ki on PIM2 (Homo sapiens (Human), UniProt Q9P1W9), entry C=Cc1cncc(-c2cc3c(cn2)cnn3-c2cccc(N3CCNCC3)n2)n1 [Compound 274, dihydrochloride]
Reply | 4.26

Ask | Fill in: Ki on PIM2 (Homo sapiens (Human), UniProt Q9P1W9), entry Cc1cncc(-c2cc3c(cn2)cnn3-c2cccc(C3=CCNCC3)n2)n1
Reply | 8.31

Ask | Fill in: Ki on PIM2 (Homo sapiens (Human), UniProt Q9P1W9), entry Cc1cncc(-c2cc3c(cn2)cnn3-c2cccc(N3CCCNC3=O)n2)n1
Reply | 35

Ask | Fill in: Ki on PIM2 (Homo sapiens (Human), UniProt Q9P1W9), entry Cn1cc(-c2cc3c(cn2)cnn3-c2cccc(N3CC(O)C3)n2)cn1
Reply | 45.1

Ask | Fill in: Ki on PIM2 (Homo sapiens (Human), UniProt Q9P1W9), entry CS(=O)(=O)CCn1cc(-c2cc3c(cn2)cnn3-c2cccc(N3CCCNCC3)n2)cn1
Reply | 6.2
